Tested on: SF-539
Assay: NCI tumour cell line growth inhibition, 48 h
Active and inactive are the calls of the source. Cut-off read from the data, not from the text of the source: active = GI50 up to about 1.1 µM and inactive = higher.
Assay readout: GI50

Example results:
COC(=O)Cc1ccc2c(cnn2-c2ccccc2)c1OC	> 10 µM (inactive)
O=c1[nH]c(=O)n(C2OC(CO)C(O)C2O)cc1Oc1ccccc1 (stereo not given)	> 100 µM (inactive)
[O-][S+](Nc1ccccc1)c1ccccc1Oc1ccccc1 (stereo not given)	14.6 µM (inactive)
CC(=O)c1c2c(cc3c1CC1(Cc4cc5c(cc4C1)CCC5)C3)CCC2	> 100 µM (inactive)

Next item in the queue.
Input C[N+]1(C)CCCC1C(=O)[O-] (stereo not given) . Output GI50: > 100 µM (inactive)

----------
Tested on: MDA-MB-435
Assay: NCI tumour cell line growth inhibition, 48 h
Active and inactive are the calls of the source. Rule as the data show it: active = GI50 up to about 1.1 µM and inactive = higher. Peptide text beside a SMILES is read from it. * marks the point of attachment. Cbz = O=C(OCc1ccccc1)*; OBn = c1ccc(CO*)cc1
Property: GI50; scope: individual compounds

Completed entries (count: 2):
O=C(c1ccccc1)c1ccc2c(c1)nc1n2C(c2c(Cl)cccc2Cl)SC1 (stereo not drawn)	59.2 µM (inactive)
Cc1cc(OP2(=O)NCc3ncccc3O2)ccc1Cl (stereo not drawn)	> 100 µM (inactive)

Recorded result, COc1c2c(c3c(c1CCC(=O)O)OC(C)(C)C=C3)OC(C)(C)C=C2 , GI50: 28.9 µM (inactive)

For CC1(C)[C@@H]2CC[C@@]1(C)C1(S[S+]1[O-])C21Cc2ccccc2C1 (stereo partly drawn) the compound record lists GI50 as 29.4 µM (inactive)

According to the records, this compound N=C(N)NCCCC(NC(=O)OCCCCCCn1ccc(N)nc1=O)C(=O)O (stereo not drawn) displays GI50 of > 100 µM (inactive)

Reported GI50 for COC(=O)CNC(=O)C(C)NC(=O)C(CC(=O)OCc1ccccc1)NC(=O)OCc1ccccc1 (stereo not drawn) (Cbz-Asp(OBn)-Ala-Gly-OMe; configuration not given here) was 37.1 µM (inactive)

// sample Cc1cc2c(C(C)C)c(O)c(O)c(/C=N/c3cc(C(F)(F)F)ccc3Cl)c2c(O)c1-c1c(C)cc2c(C(C)C)c(O)c(O)c(/C=N/c3cc(C(F)(F)F)ccc3Cl)c2c1O , its GI50 was 32.6 µM (inactive)

Lab note: CCOc1cc(C(=O)O)c2c(ccc3ccc(OC)c(OC)c32)c1OC gave GI50 of > 100 µM (inactive)

----------
# Lookup of reported GI50 keyed by entry
Tested on: UACC-62
Assay: NCI tumour cell line growth inhibition, 48 h
Calls of active or inactive are those of the source. No stated cut-off is given here; in the data, active = GI50 up to about 1.1 µM and inactive = higher.

Example cases with answers are listed next.
O=C(Nc1nccs1)c1cc(C2=CC=CC([N+](=O)[O-])C=C2)nc(S)n1 (stereo not given)	> 100 µM (inactive)
O=c1nc2n(cc1/C=C\Br)C1CC(O)C(CO2)O1 (stereo not given)	> 100 µM (inactive)
O=C(OC(=O)n1ccc2ccccc21)n1ccc2ccccc21	> 100 µM (inactive)
Cc1ccc(S(=O)(=O)C(CC(=O)N2CCCC2)C(=O)c2ccccc2)cc1 (stereo not given)	> 100 µM (inactive)
CCOC(=O)C(=O)/C(=C\NC(=S)Nc1ccccc1Cl)C(=O)OCC	> 100 µM (inactive)
N#CC(/N=N/c1ccccc1C(=O)O)C(N)=O (stereo not given)	> 100 µM (inactive)
O=c1[nH]cc(F)c(=O)[nH]1 [FLUOROURACIL]	13.9 µM (inactive)
Cc1cc(NS(=O)(=O)c2ccc(NC(=O)c3cccc4c(Nc5ccc(S(=O)(=O)Nc6cc(C)on6)cc5)c5ccccc5nc34)cc2)no1	17.5 µM (inactive)

GI50 reading for CN(CCO)c1nc(N)cc(=O)[nH]1 : > 100 µM (inactive)

The reported value for C#Cc1cc(CN(CC(=O)OC(C)(C)C)CC(=O)OC(C)(C)C)nc(CN(CC(=O)OC(C)(C)C)CC(=O)OC(C)(C)C)c1 in terms of GI50 is 4.26 µM (inactive)

----------
Tested on: U-251
Assay: NCI tumour cell line growth inhibition, 48 h
Calls of active or inactive are those of the source. Rule as the data show it: active = GI50 up to about 1.1 µM and inactive = higher.
// classify into active, inactive

CCOP(=O)(OCC)OC1C=CC2CCC1C2 (stereo not given)	inactive

Per the records of this test, what outcome belongs to C/N=C(\N)N/N=C(\C)c1ccc2oc3ccc(/C(C)=N/N/C(N)=N/C)cc3c2c1 ?
inactive

Each compound tested received a call. Report the one for COC(=O)[C@]1(NC(=O)c2ccccc2)C[C@H]1C=O .
inactive

Tell me the recorded outcome of this test for CN(C)CCNc1ccc2c(=O)n(CCN(C)C)c(=O)n3c4ccc(N)cc4c(=O)c1c23 .
active

Identify the outcome logged in this assay for the compound shown: Cc1ccccc1C(=N)c1ccccc1Cc1cccc2ccccc12
inactive

Field: outcome | Entry: O=S(O)CCCCCSSCCCCSSCCCCCS(=O)O
inactive

# fetch the recorded call for CC1(C)C2CC(=O)C1(C)C(O)C2Br (stereo not given) here
inactive

Assay result, entry CC[C@]12C=CCN3CC[C@@]4(c5cc(N=O)c(OC)cc5N(C)[C@H]4[C@@](O)(C(=O)NC(Cc4c[nH]c5ccccc45)C(=O)OC)[C@@H]1O)[C@@H]32 (stereo not given in full) — outcome?
inactive

Name the outcome recorded for O=C(OC(=O)n1ccc2ccccc21)n1ccc2ccccc21 in the assay.
inactive

Just curious, what result did CC1=NN(c2nc(N)nc(COc3ccc(N)cc3)n2)C(C)(C)C1 get here?
inactive

----------
System: SNB-19
Assay: NCI tumour cell line growth inhibition, 48 h
Activity calls are given as the source filed them. Cut-off read from the data, not from the text of the source: active = GI50 up to about 1.1 µM and inactive = higher.
Recorded GI50 for the following molecules

# count of solved cases: 4
CCOC(=O)/C=C(/C)Nc1nc2c(c(C(=O)OC)c1C#N)CCCC2	> 100 µM (inactive)
CC(C)(C)N/N=N/c1cn(C2OC(CO)C(O)C2O)c(=O)[nH]c1=O (stereo not given)	> 100 µM (inactive)
CCOC(=O)c1c(SC(=O)c2ccc(Cl)cc2)n(-c2ccccc2)c(=S)n(-c2ccccc2)c1=O	> 100 µM (inactive)
C[N+](C)(C)CCC(=O)N1C/C(=C\c2ccccc2)C(=O)/C(=C/c2ccccc2)C1	5.38 µM (inactive)

Query molecule follows.
Per the reported SNB-19 data, CC(=O)N1CCC2(c3ccccc3N(C(C)=O)C2c2ccc(O)cc2)C1C(=O)O (stereo not given) has GI50 of > 100 µM (inactive)

----------
System: OVCAR-4
Assay: NCI tumour cell line growth inhibition, 48 h
Active and inactive are the calls of the source. Rule as the data show it: active = GI50 up to about 1.1 µM and inactive = higher.
Item-by-item account of GI50

Value of measured GI50 for the entry CCOC(=O)c1c(SC(=O)c2ccc(Cl)cc2)n(-c2ccccc2)c(=S)n(-c2ccccc2)c1=O : > 100 µM (inactive)

Just so you know, measured GI50 for O=C1N=C2SC=C(NC(=S)Nc3ccccc3)N2NC12c1ccccc1-c1ccccc12 came out at > 10 µM (inactive)

GI50 reported for this compound O=C1[C@@H]2C(c3ccc(Cl)cc3Cl)=NO[C@@H]2C(=O)N1c1ccc(Cc2ccc(N3C(=O)[C@H]4C(c5ccc(Cl)cc5Cl)=NO[C@H]4C3=O)cc2)cc1 : > 100 µM (inactive)

# GI50 of Oc1c(Cl)c(Cl)c(O)c(CCNc2ccc3ncccc3c2)c1Cl = 79.6 µM (inactive)

----------
System: A498
Assay: NCI tumour cell line growth inhibition, 48 h
Activity calls are given as the source filed them. Cut-off read from the data, not from the text of the source: active = GI50 up to about 1.1 µM and inactive = higher.
Listing of recorded GI50 by entry.

C=CCOCn1ccc(=O)[nH]c1=O	> 100 µM (inactive)
Oc1ccc(-c2c3ccccc3c(-c3ccc(O)cc3)c3ccccc23)cc1	> 100 µM (inactive)
C#CCSc1nc(N)c2ncn(C3OC(CO)C(O)C3O)c2n1 (centres undefined)	> 100 µM (inactive)
Cc1ccc(NC(=O)CC2C(=O)Nc3ccccc3S2(=O)=O)c(C)c1 (centres undefined)	14.8 µM (inactive)
CCN(CC)CCNc1ccc(/N=N/c2ccc(S(N)(=O)=O)cc2)c2ccccc12	14.1 µM (inactive)

# O=C(Nc1cccc(Cl)c1)Nn1cnnc1 with A498: GI50 is > 100 µM (inactive)

Form: item O=C(c1nc2ccccc2nc1O)C(O)c1ccccc1 (centres undefined) ; test system A498; GI50: 39.5 µM (inactive)

Reported GI50 (A498) for entry O=C(Nc1ccc(Cl)c(Cl)c1)C(=O)C(C(=O)c1ccccc1-c1ccccc1)C1OC(=O)c2ccccc21 (centres undefined) is 22.9 µM (inactive)

Record O=C1Cc2ccccc2CCc2ccccc21 / A498, GI50 recorded as > 100 µM (inactive)

Tested on A498, the item O=C(NN1C(=O)CS(=O)(=O)C1c1ccc(C(F)(F)F)cc1)c1ccncc1 (centres undefined) showed GI50 equal to > 100 µM (inactive)

Summary: CN(C)Cc1cc(O)c(O)c(CN(C)C)c1 , A498, GI50 = > 100 µM (inactive)

Value sought: GI50, system A498, item CC1C2CC(C(S(=O)(=O)O)C2=O)C1(C)C (centres undefined) . Result: > 100 µM (inactive)

Lab note: compound c1ccc2c(c1)Sc1ccccc1N2CC1CN2CCC1CC2 (centres undefined) tested on A498; recorded GI50 was 11.7 µM (inactive)

Field GI50 (A498), entry CC1C[C@H](OC(N)=O)C(C)CC1=O (some centres undefined) : > 100 µM (inactive)

The compound CC(C)(C)c1ccc2c(c1)C#Cc1cc(C(C)(C)C)ccc1OCCCO2 on A498: GI50 was > 100 µM (inactive)

For the compound CCOc1ccccc1NC(=O)CCC(=O)OC , the measured GI50 on A498 was > 100 µM (inactive)
